B1: LINE1-full (parent)
chain: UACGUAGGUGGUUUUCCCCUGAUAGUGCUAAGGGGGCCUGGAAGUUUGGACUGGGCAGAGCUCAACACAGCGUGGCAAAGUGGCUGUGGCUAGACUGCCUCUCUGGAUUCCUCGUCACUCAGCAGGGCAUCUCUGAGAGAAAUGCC

variants of: B1; assay: self-cleavage, relative activity (ratio to wild type); higher = more cleavage; in vitro, sequencing; the parent is a self-cleaving ribozyme
ENDPOINT_LABEL: self-cleavage
Number only, please.

Examples with their reported self-cleavage follow.
| MUTATION_KEY | self-cleavage |
| --- | --- |
| C98U C123U | 0.35 |
| G34A U115A | 1.08 |
| A94G C133A | 0.46 |
| G93U U109C | 0.02 |

Request the reported self-cleavage associated with U5C C90U
0.11

Fill blank: measured self-cleavage of the variant U14C U104A is ____.
1.04

Recorded self-cleavage for G33C A117U , please?
0.85
